# Assayed system: human CB1 receptor (Homo sapiens, UniProt P21554)
# Construct: expressed in transfected cells; membrane-enriched fractions
# Sequence (P21554 whole entry): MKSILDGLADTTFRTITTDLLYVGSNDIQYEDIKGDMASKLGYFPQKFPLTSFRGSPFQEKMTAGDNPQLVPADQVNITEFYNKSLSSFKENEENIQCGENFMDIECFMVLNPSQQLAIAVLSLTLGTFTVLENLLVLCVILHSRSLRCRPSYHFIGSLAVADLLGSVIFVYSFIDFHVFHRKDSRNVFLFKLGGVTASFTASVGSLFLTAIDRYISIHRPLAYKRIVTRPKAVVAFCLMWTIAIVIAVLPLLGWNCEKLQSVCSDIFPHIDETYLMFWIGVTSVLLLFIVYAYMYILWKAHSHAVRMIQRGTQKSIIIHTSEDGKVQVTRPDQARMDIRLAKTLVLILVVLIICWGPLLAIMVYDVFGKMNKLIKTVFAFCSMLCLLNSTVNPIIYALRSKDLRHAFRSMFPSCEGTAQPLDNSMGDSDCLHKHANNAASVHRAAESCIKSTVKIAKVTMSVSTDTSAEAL
# Experiment notes: competitive radioligand binding assay, displacement of [3H]CP55,940, CB1
# Condition: Table 2; percent inhibition at 10 μM

Molecule smiles: O=C(Cn1nc(-c2ccc(Cl)cc2Cl)c(-c2ccc(Cl)cc2Cl)n1)N1CCOCC1
inhibition at 10 µM: 84.2%
--
Molecule smiles: O=C(Cn1nc(-c2ccc(Cl)cc2)c(-c2ccc(Cl)cc2Cl)n1)NCc1cc(F)ccc1F
inhibition at 10 µM: 89.8%
--
Molecule smiles: COc1ccc(CNC(=O)Cn2nc(-c3ccc(Cl)cc3Cl)c(-c3ccc(Cl)cc3Cl)n2)cc1
inhibition at 10 µM: 94.8%
--
Molecule smiles: O=C(Nc1ccc(Cl)cc1)n1nc(-c2ccc(Cl)cc2)c(-c2ccc(Cl)cc2)n1
inhibition at 10 µM: 1.5%
